# System: WM278 (Melanoma)
# assay procedure: Bliss excess, mean over the matrix (fraction); higher = more synergy
measured endpoint: Bliss excess

1. Cc1c2c(nn1C)CSCc1cc(n(C)n1)CSc1cc(c3ccccc3c1)OCCCc1c(C(=O)O)n(C)c3c-2c(Cl)ccc13 [AZD5991] + CN(C)CCCOc1ccc(-c2ccc3ncc4c(c3c2)n(C2CCOCC2)c(=O)n4C)cn1 [AZD0156] (first compound max 1 µM, 7x7, partner max 1 µM)	-0.0196
2. NC1(C(=O)N[C@@H](CCO)c2ccc(Cl)cc2)CCN(c2ncnc3[nH]ccc23)CC1 [Capivasertib] + CCN(CCO)CCCOc1ccc2c(Nc3cc(CC(=O)Nc4cccc(F)c4)[nH]n3)ncnc2c1 [AZD2811] (first compound max 10 µM, 7x7, partner max 1 µM)	-0.065
3. Cc1cc2ncnn2cc1Nc1ncc2c(n1)n(C1CCOCC1)c(=O)n2C [AZD7648] + C=CCn1c(=O)c2cnc(Nc3ccc(N4CCN(C)CC4)cc3)nc2n1-c1cccc(C(C)(C)O)n1 [AZD1775] (first compound max 10 µM, partner max 1 µM)	-0.027
4. C[C@@H](c1ccc2nccn2c1)n1nnc2ncc(-c3cnn(C)c3)nc21 [Savolitinib] + CC1(C)CCC(CN2CCN(c3ccc(C(=O)NS(=O)(=O)c4ccc(NCC5CCOCC5)c([N+](=O)[O-])c4)c(Oc4cnc5[nH]ccc5c4)c3)CC2)=C(c2ccc(Cl)cc2)C1 [Venetoclax] (first compound max 1 µM, 7x7, partner max 1 µM)	-0.0614

====

# reported Bliss excess; entries follow
# Tested on: TE-8 (Esophageal Squamous Cell Carcinoma)
# assay procedure: Bliss excess, mean over the matrix (fraction); higher = more synergy
measured endpoint: Bliss excess

1. CC1(C)CCC(CN2CCN(c3ccc(C(=O)NS(=O)(=O)c4ccc(NCC5CCOCC5)c([N+](=O)[O-])c4)c(Oc4cnc5[nH]ccc5c4)c3)CC2)=C(c2ccc(Cl)cc2)C1 [Venetoclax] + C[C@@H]1COCCN1C2=NC(=NC(=C2)C3(CC3)[S@](=N)(=O)C)C4=C5C=CNC5=NC=C4 [AZD6738] (first compound max 1 µM, 7x7, partner max 10 µM)	-0.0603
2. Cc1c2c(nn1C)CSCc1cc(n(C)n1)CSc1cc(c3ccccc3c1)OCCCc1c(C(=O)O)n(C)c3c-2c(Cl)ccc13 [AZD5991] + Nc1ccn([C@@H]2O[C@H](CO)[C@@H](O)C2(F)F)c(=O)n1 [Gemcitabine] (first compound max 1 µM, 7x7, partner max 0.3 µM)	-0.0682
3. Cc1c2c(nn1C)CSCc1cc(n(C)n1)CSc1cc(c3ccccc3c1)OCCCc1c(C(=O)O)n(C)c3c-2c(Cl)ccc13 [AZD5991] + CC(=O)O[C@H]1C(=O)[C@@]2(C)[C@H]([C@H](OC(=O)c3ccccc3)[C@]3(O)C[C@H](OC(=O)[C@H](O)[C@@H](NC(=O)c4ccccc4)c4ccccc4)C(C)=C1C3(C)C)[C@]1(OC(C)=O)CO[C@@H]1C[C@@H]2O [Paclitaxel] (first compound max 1 µM, 7x7, partner max 3 µM)	-0.0041

====

# reported combination Emax; entries follow
# Test system: RCM-1 (Colorectal Carcinoma)
# assay procedure: combination Emax (second highest fraction inhibited in the dose matrix, 72 h); higher = more inhibition; extreme values may be limits of the assay
measured endpoint: combination Emax

1. CN(CCO)CC[C@H](CSc1ccccc1)Nc1ccc(S(=O)(=O)NC(=O)c2ccc(N3CCC([C@@H](O)c4ccccc4-c4ccc(Cl)cc4)CC3)cc2)cc1S(=O)(=O)C(F)(F)F [AZD4320] + Cn1cnc2c(F)c(Nc3ccc(Br)cc3Cl)c(C(=O)NOCCO)cc21 [Selumetinib] (first compound max 1 µM, 7x7, partner max 3 µM)	0.785
2. O=C(c1cc(Cc2n[nH]c(=O)c3ccccc23)ccc1F)N1CCN(C(=O)C2CC2)CC1 [Olaparib] + COc1nnc2ccc(N3CCC(c4ccc(OCCN5CCN(C)C(=O)[C@H]5C)cc4)CC3)nn12 [AZD5153] (first compound max 10 µM, 7x7, partner max 1 µM)	0.522
3. CN(CCO)CC[C@H](CSc1ccccc1)Nc1ccc(S(=O)(=O)NC(=O)c2ccc(N3CCC([C@@H](O)c4ccccc4-c4ccc(Cl)cc4)CC3)cc2)cc1S(=O)(=O)C(F)(F)F [AZD4320] + C[C@@H]1COCCN1C2=NC(=NC(=C2)C3(CC3)[S@](=N)(=O)C)C4=C5C=CNC5=NC=C4 [AZD6738] (first compound max 1 µM, 7x7, partner max 10 µM)	0.862
4. COc1cccc(OCCCN)c1-c1cc(Nc2cnc(C#N)cn2)n[nH]1 [Prexasertib] + C=CCn1c(=O)c2cnc(Nc3ccc(N4CCN(C)CC4)cc3)nc2n1-c1cccc(C(C)(C)O)n1 [AZD1775] (first compound max 1 µM, partner max 1 µM)	0.822
5. CN(CCO)CC[C@H](CSc1ccccc1)Nc1ccc(S(=O)(=O)NC(=O)c2ccc(N3CCC([C@@H](O)c4ccccc4-c4ccc(Cl)cc4)CC3)cc2)cc1S(=O)(=O)C(F)(F)F [AZD4320] + CC(=O)O[C@H]1C(=O)[C@@]2(C)[C@H]([C@H](OC(=O)c3ccccc3)[C@]3(O)C[C@H](OC(=O)[C@H](O)[C@@H](NC(=O)c4ccccc4)c4ccccc4)C(C)=C1C3(C)C)[C@]1(OC(C)=O)CO[C@@H]1C[C@@H]2O [Paclitaxel] (first compound max 1 µM, 7x7, partner max 3 µM)	0.54
6. CN(CCO)CC[C@H](CSc1ccccc1)Nc1ccc(S(=O)(=O)NC(=O)c2ccc(N3CCC([C@@H](O)c4ccccc4-c4ccc(Cl)cc4)CC3)cc2)cc1S(=O)(=O)C(F)(F)F [AZD4320] + C1CN(CCC1(C(=O)N[C@@H](CCO)C2=CC=C(C=C2)Cl)N)C3=NC=NC4=C3C=CN4 [Capivasertib] (first compound max 1 µM, 7x7, partner max 3 µM)	0.343
